target: α-amylase (Sus scrofa, UniProt P00690); construct: α-amylase (EC 232-565-6, powder, ≥5 units/mg solid) isolated from porcine pancreas; purchased Sigma-Aldrich Co; host or cells: porcine pancreas; test: Fluorescence quenching experiment with α-amylase (Stern-Volmer, double logarithmic, Van 't Hoff); type: binding, porcine; details: Ka (binding constant) α-amylase, T 310.15 K
Sequence (P00690 16-511): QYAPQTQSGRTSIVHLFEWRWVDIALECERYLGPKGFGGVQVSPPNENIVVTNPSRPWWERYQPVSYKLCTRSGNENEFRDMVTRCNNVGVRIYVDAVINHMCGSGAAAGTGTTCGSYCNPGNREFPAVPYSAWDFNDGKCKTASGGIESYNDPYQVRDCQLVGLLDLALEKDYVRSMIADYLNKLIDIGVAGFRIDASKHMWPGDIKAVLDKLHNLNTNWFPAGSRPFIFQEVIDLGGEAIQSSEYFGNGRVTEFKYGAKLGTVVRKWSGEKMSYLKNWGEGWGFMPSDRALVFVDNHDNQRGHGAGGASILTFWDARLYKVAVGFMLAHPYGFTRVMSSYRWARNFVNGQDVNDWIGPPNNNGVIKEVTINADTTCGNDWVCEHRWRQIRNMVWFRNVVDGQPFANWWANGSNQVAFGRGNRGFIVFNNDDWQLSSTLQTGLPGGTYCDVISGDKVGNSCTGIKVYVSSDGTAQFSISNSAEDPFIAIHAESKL
property: Kd (µM)
Answers are plain numbers, in µM.

Req: For the compound O=c1c(O)c(-c2ccc(O)c(O)c2)oc2cc(O[C@@H]3O[C@H](CO)[C@@H](O)[C@H](O)[C@H]3O)cc(O)c12 [Quercimeritrin] , report Kd.
Resp: 38.5

---

biological target: α-amylase (Sus scrofa); construct: α-amylase (EC 232-565-6, powder, ≥5 units/mg solid) isolated from porcine pancreas; purchased Sigma-Aldrich Co; host or cells: porcine pancreas; experiment: In vitro α-amylase activity assay (G3-CNP, absorbance 405 nm); format: biochemical, porcine; conditions: read-out: α-amylase inhibition IC50±SEM
pIC50: −log10 of the molar value.
I'd appreciate it if you could supply pIC50 values for the items below.

// each compound listed below needs its pIC50
1. O=c1c(O[C@@H]2O[C@H](CO)[C@H](O)[C@H](O)[C@H]2O)c(-c2ccc(O)c(O)c2)oc2cc(O)cc(O)c12 [Hyperoside]
2. O=c1c(O[C@@H]2O[C@H](CO)[C@H](O)[C@H](O)[C@H]2O)c(-c2ccc(O)cc2)oc2cc(O)cc(O)c12
3. O=C(O[C@@H]1Cc2c(O)cc(O)cc2O[C@@H]1c1ccc(O)c(O)c1)c1cc(O)c(O)c(O)c1 [Epicatechin gallate]
4. O=C(O)C1OC(Oc2c(-c3ccc(O)c(O)c3)oc3cc(O)cc(O)c3c2=O)C(O)C(O)C1O (stereo not shown)
5. C[C@@H]1O[C@@H](Oc2c(-c3ccc(O)c(O)c3)oc3cc(O)cc(O)c3c2=O)[C@H](O)[C@H](O)[C@H]1O

Resp:
< 3.30
< 3.30
< 3.60
< 3.30
< 3.30

Quick request: pIC50 for each listed item, please.
1. O=c1cc(-c2ccccc2)oc2cc(O[C@@H]3O[C@H](CO)[C@@H](O)[C@H](O)[C@H]3O)c(O)c(O)c12
2. O=c1c(O)c(-c2ccc(O)c(O)c2)oc2cc(O[C@@H]3O[C@H](CO)[C@@H](O)[C@H](O)[C@H]3O)c(O)c(O)c12

Resp:
1: < 3.60; 2: < 3.90

---

biological target: α-glucosidase (Saccharomyces cerevisiae); construct: purchased Sigma-Aldrich Co; assay: biochemical; details: read-out: α-Glucosidase inhibition
Sequence (P53341 whole entry): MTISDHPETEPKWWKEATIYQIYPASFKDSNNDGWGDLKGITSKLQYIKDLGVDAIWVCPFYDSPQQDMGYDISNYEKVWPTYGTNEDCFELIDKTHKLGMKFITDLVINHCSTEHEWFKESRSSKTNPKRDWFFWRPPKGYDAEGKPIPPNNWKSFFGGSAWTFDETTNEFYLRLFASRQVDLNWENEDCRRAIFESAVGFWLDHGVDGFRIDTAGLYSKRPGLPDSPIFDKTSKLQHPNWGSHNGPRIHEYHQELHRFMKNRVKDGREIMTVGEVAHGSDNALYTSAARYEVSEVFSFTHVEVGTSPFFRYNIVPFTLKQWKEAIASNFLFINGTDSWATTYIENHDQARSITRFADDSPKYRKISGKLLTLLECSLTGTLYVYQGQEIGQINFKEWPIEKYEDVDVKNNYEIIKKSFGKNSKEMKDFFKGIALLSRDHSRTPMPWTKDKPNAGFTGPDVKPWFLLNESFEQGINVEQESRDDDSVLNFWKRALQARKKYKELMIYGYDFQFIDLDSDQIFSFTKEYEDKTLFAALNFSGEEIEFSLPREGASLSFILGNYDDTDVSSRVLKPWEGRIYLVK
property: inhibition at 500 µM (%)
Numbers only, in %.

In the examples that follow, each entry is paired with its recorded inhibition at 500 µM.
{"molecule": "O=C(O)C1OC(Oc2c(-c3ccc(O)c(O)c3)oc3cc(O)cc(O)c3c2=O)C(O)C(O)C1O (stereo not shown) [Quercituron]", "inhibition at 500 µM (%)": 17}
{"molecule": "O=c1c(O[C@@H]2O[C@H](CO)[C@H](O)[C@H](O)[C@H]2O)c(-c2ccc(O)c(O)c2)oc2cc(O)cc(O)c12 [Hyperoside]", "inhibition at 500 µM (%)": 48}
{"molecule": "O=c1c(O)c(-c2ccc(O)c(O)c2)oc2cc(O[C@@H]3O[C@H](CO)[C@@H](O)[C@H](O)[C@H]3O)cc(O)c12 [Quercimeritrin]", "inhibition at 500 µM (%)": 92}
{"molecule": "O=C(O[C@@H]1Cc2c(O)cc(O)cc2O[C@@H]1c1ccc(O)c(O)c1)c1cc(O)c(O)c(O)c1 [Epicatechin gallate]", "inhibition at 500 µM (%)": 61}
{"molecule": "O=c1c(O[C@@H]2O[C@@H](CO)[C@H](O)[C@H]2O)c(-c2ccc(O)c(O)c2)oc2cc(O)cc(O)c12 [Avicularin]", "inhibition at 500 µM (%)": 33}
{"molecule": "O=c1cc(-c2ccc(O)cc2)oc2cc(O[C@@H]3O[C@H](CO)[C@@H](O)[C@H](O)[C@H]3O)cc(O)c12 [Apigetrin]", "inhibition at 500 µM (%)": 74}
{"molecule": "O=c1c(O)c(-c2ccc(O)c(O)c2)oc2cc(O[C@@H]3O[C@H](CO)[C@@H](O)[C@H](O)[C@H]3O)c(O)c(O)c12 [Quercetagitrin]", "inhibition at 500 µM (%)": 56}
{"molecule": "C[C@@H]1O[C@@H](Oc2c(-c3ccc(O)c(O)c3)oc3cc(O)cc(O)c3c2=O)[C@H](O)[C@H](O)[C@H]1O [Quercitrin]", "inhibition at 500 µM (%)": 38}

Could you tell me inhibition at 500 µM for each of these molecules? They are listed below.
1. O=c1cc(-c2ccccc2)oc2cc(O[C@@H]3O[C@H](CO)[C@@H](O)[C@H](O)[C@H]3O)c(O)c(O)c12 [Oroxin A]
2. C[C@H]1O[C@H](O[C@H]2[C@H](O)[C@@H](O)[C@@H](O[C@H]3[C@H](O)[C@@H](O)C(O)O[C@@H]3CO)O[C@@H]2CO)[C@H](O)[C@@H](O)[C@@H]1N[C@H]1C=C(CO)[C@@H](O)[C@H](O)[C@H]1O (stereo partly shown) [Acarbose, reference compound]

Resp:
[10, 49]
